What cell viability was measured for each of the following?
# Test system: MOLM14
# Method Description: cell viability relative to vehicle control; higher = less cytotoxic;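 further: after 48 h exposure read by CellTiter-Glo luminescence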
# Test Context: 10 µM; SRSF2 genotype: SRSF2 wt/wt
Counter-ions that a name gives are not always drawn.
Give the value, in units of %, as a plain number.

In: Entry under review: CC1=C[C@@H]2C(=O)[C@]3(C=C(C)[C@H](O)[C@@]3(O)[C@@H]1O)[C@H](C)C[C@@H]1[C@H]2C1(C)C . Reported cell viability?
Out: 14.8

In: Continue with COc1cc2c(cc1O)C[C@H]1c3c(cc(O)c(OC)c3-2)CCN1C
Out: 101

In: Let us now turn to COP(=O)(OC)SCn1c(=O)oc2cc(Cl)cnc21
Out: 107

In: Let us now turn to O=C(NC(=O)c1c(F)cccc1F)Nc1ccc(OC(F)(F)C(F)OC(F)(F)F)c(Cl)c1 (stereo not drawn)
Out: 106

In: Now the same for COc1cc(OC)c(OC)cc1C=O
Out: 105

In: // repeat for COC1=C[C@@H]2[C@@H]3Cc4ccc(OC)c(O)c4[C@]2(CCN3C)CC1=O [Sinomenine hydrochloride] and report
Out: 101

In: Also, CCOc1ccccc1-n1c(C(C)N2CCN(C(=O)COc3ccc(Cl)cc3)CC2)nc2ccccc2c1=O (stereo not drawn) please.
Out: 3.65

In: Another compound to look at: C#C[C@]1(O)C=C[C@H]2[C@@H]3CCC4=CC(=O)CC[C@@H]4[C@H]3CC[C@@]21CC
Out: 97.1

====

# System: MARIMO
# Method Description: cell viability relative to vehicle control; higher = less cytotoxic
# Test Context: 10 µM; SRSF2 genotype: SRSF2 P95H/wt
Where a name gives a salt, the structure may show the parent alone.
Please go through the items and note down their cell viability.
Numeric only. Scale: %

In: # query: cell viability of entry O=C1CC[C@@]2(O)[C@H]3Cc4ccc(O)c5c4[C@@]2(CCN3CC2CC2)[C@H]1O5 [Naltrexone HCl]
Out: 98.8

In: One more compound: COc1cc(C2OCC3C(c4cc(OC)c(OC5OC(CO)C(O)C(O)C5O)c(OC)c4)OCC23)cc(OC)c1OC1OC(CO)C(O)C(O)C1O (configuration not stated) [Eleutheroside E]
Out: 97.3

In: Also Cc1cccc(C)c1NC(=O)CN1CCCC1=O [Nefiracetam (Translon)] , if possible.
Out: 109

In: Please give the result for CCCC[N+]1(C)[C@@H]2CC(OC(=O)[C@H](CO)c3ccccc3)C[C@H]1[C@@H]1O[C@@H]12 (some centres not stated) [Butylscopolamine bromide (Scopolamine butylb] too.
Out: 102

In: Please do the same for O=C1CCC[C@@H]2[C@H]3CCCN4CCC[C@H](CN12)[C@@H]34 as well.
Out: 108

In: Now consider O=c1[nH]c2ccccc2n1CCCN1CCC(n2c(=O)[nH]c3cc(Cl)ccc32)CC1 and answer again.
Out: 77.9

In: Please give the result for C[C@@H]1CCC=C2C(=O)C[C@H]3OOC(C)(C)[C@H]3[C@]21C too.
Out: 84.7

====

# Test system: MARIMO
# Method Description: cell viability relative to vehicle control; higher = less cytotoxic
# Test Context: 10 µM; SRSF2 genotype: SRSF2 P95H/wt
Structures can show the parent of a compound that is named as a salt.
cell viability strictly under 90% means yes (1); at 90% or over means no (0).

In: Lab note: confirm whether the reported cell viability for this compound is below 90%, equality not counting. compound: Cc1cccc(C(C)c2c[nH]cn2)c1C (configuration not stated) [Medetomidine HCl]
Out: no (0)

In: // repeat for O=C(/C=C/c1ccccc1)OC[C@H]1O[C@@H](O[C@@H]2OC=C[C@H]3[C@H](O)[C@@H]4O[C@]4(CO)[C@@H]23)[C@H](O)[C@@H](O)[C@@H]1O [Picroside I] and report
Out: no (0)

In: And then Cc1c([C@H](C)[C@@H]2NC[C@@H](C)C[C@H]2O)ccc2c1C[C@H]1[C@H]2CC=C2C[C@@H](O)CC[C@@]21C , what is it?
Out: yes (1)

In: Entry to check: O=C(c1ccccc1O)c1[nH]c(Cl)c(Cl)c1-n1c(C(=O)c2ccccc2O)cc(Cl)c1Cl
Out: yes (1)

In: Can you handle Cc1sc2c(c1C)C(c1ccc(Cl)cc1)=N[C@@H](CC(=O)OC(C)(C)C)c1nnc(C)n1-2 next?
Out: yes (1)

In: Would you kindly repeat that for N#CC(C#N)=NNc1ccc(OC(F)(F)F)cc1 ?
Out: yes (1)

In: Here is the next compound: Nc1nc(N)nc(N)n1
Out: no (0)

In: Param item: Cc1cccc(C)c1NC1=NCCCS1 [Xylazine HCl]
Out: yes (1)

In: Entry to check: CC[C@@H]1CN2CC[C@@]3(C(=O)Nc4ccccc43)[C@@H]2C[C@@H]1/C(=C\OC)C(=O)OC
Out: yes (1)

In: Now the compound CN1[C@@H]2CC[C@H]1C[C@@H](OC(=O)C(CO)c1ccccc1)C2 (some centres not stated) [Atropine sulfate monohydrate]
Out: no (0)
